test system: HepG2; assay: Antiproliferative activity against human HepG2 cells assessed as reduction in cell growth after 72 hrs by MTT assay; type: functional, cell-based; settings: HepG2, 72 h
Note to self: IC50 under 9 µM means rule met, ties and anything higher get rule not met.

- molecule: "CN1Cc2c(ccc3c2OCO3)[C@@H]2[C@H]1c1cc3c(cc1C[C@@H]2O)OCO3"
  group: "rule not met"
- molecule: "CN1Cc2c(ccc3c2OCO3)[C@H]2[C@@H](OC(=O)CCCC(=O)NCCCOc3no[n+]([O-])c3S(=O)(=O)c3ccccc3)Cc3cc4c(cc3[C@H]21)OCO4"
  group: "rule not met"
- molecule: "CN1Cc2c(ccc3c2OCO3)[C@H]2[C@@H](OC(=O)CCCC(=O)OCC#CCOc3no[n+]([O-])c3S(=O)(=O)c3ccccc3)Cc3cc4c(cc3[C@H]21)OCO4"
  group: "rule met"
- molecule: "CC(CNC(=O)CCCC(=O)O[C@H]1Cc2cc3c(cc2[C@@H]2[C@H]1c1ccc4c(c1CN2C)OCO4)OCO3)Oc1no[n+]([O-])c1S(=O)(=O)c1ccccc1 (stereo partly specified)"
  group: "rule met"
- molecule: "CN1Cc2c(ccc3c2OCO3)[C@H]2[C@@H](OC(=O)CCCC(=O)NCCOc3no[n+]([O-])c3S(=O)(=O)c3ccccc3)Cc3cc4c(cc3[C@H]21)OCO4"
  group: "rule not met"
- molecule: "CN1Cc2c(ccc3c2OCO3)[C@H]2[C@@H](OC(=O)CCCC(=O)OCCCCOc3no[n+]([O-])c3S(=O)(=O)c3ccccc3)Cc3cc4c(cc3[C@H]21)OCO4"
  group: "rule not met"
- molecule: "CN1Cc2c(ccc3c2OCO3)[C@H]2[C@@H](OC(=O)CCC(=O)NCCOc3no[n+]([O-])c3S(=O)(=O)c3ccccc3)Cc3cc4c(cc3[C@H]21)OCO4"
  group: "rule not met"
- molecule: "CC(CNC(=O)CCC(=O)O[C@H]1Cc2cc3c(cc2[C@@H]2[C@H]1c1ccc4c(c1CN2C)OCO4)OCO3)Oc1no[n+]([O-])c1S(=O)(=O)c1ccccc1 (stereo partly specified)"
  group: "rule not met"
- molecule: "CN1Cc2c(ccc3c2OCO3)[C@H]2[C@@H](OC(=O)CCC(=O)OCCCCCCOc3no[n+]([O-])c3S(=O)(=O)c3ccccc3)Cc3cc4c(cc3[C@H]21)OCO4"
  group: "rule not met"
- molecule: "CN1Cc2c(ccc3c2OCO3)[C@H]2[C@@H](OC(=O)CCC(=O)OCCOCCOc3no[n+]([O-])c3S(=O)(=O)c3ccccc3)Cc3cc4c(cc3[C@H]21)OCO4"
  group: "rule met"
- molecule: "CN1Cc2c(ccc3c2OCO3)[C@H]2[C@@H](OC(=O)CCC(=O)OCCCCOc3no[n+]([O-])c3S(=O)(=O)c3ccccc3)Cc3cc4c(cc3[C@H]21)OCO4"
  group: "rule met"

Cited source for all entries: ChEMBL document CHEMBL4610039
